This collection of values is drawn from patent EP4729546A1.

Entries and their measured EC50 follow.
- TARGET: huFXII-his (human) (UniProt P00748)
- Sequence (P00748 20-615, form in doubt): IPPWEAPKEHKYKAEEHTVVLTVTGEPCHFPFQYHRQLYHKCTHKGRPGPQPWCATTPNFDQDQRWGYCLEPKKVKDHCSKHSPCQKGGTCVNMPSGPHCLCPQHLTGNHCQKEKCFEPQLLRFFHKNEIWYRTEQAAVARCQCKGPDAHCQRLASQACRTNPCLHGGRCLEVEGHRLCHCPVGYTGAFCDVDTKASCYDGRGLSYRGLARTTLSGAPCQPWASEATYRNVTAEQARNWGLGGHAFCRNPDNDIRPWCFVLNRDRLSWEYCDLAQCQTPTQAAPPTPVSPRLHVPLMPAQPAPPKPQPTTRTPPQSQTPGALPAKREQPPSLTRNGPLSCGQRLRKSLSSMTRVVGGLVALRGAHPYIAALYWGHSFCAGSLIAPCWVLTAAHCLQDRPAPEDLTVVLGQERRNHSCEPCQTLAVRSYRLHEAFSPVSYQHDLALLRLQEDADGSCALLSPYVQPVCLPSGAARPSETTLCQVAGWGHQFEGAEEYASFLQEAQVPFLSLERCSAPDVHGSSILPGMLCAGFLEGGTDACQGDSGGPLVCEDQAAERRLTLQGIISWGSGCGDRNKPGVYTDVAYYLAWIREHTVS
- ASSAY_DETAILS: ELISA, huFXII-his coated at 1 µg/ml, HRP anti-human secondary, OD450
Provide the reading as a plain figure in µg/mL.

FX-Y17-Y18 (antibody, V domains shown) VH: EVQLLESGGGLVQPGGSLRLSCAGSGFSFGSQTMSWVRQAPGKGLEWVSSISVISGRSYYADSVKGRFTISRDNSKNTLYLQMNSLRAEDTAVYYCTKHHAFDVWGQGTMVTVSS VL: EIVLTQSPATLSVSPGERATLSCRASQSVWSNLAWYQQKPGQAPRLLIYGASTRATGIPARFSGSGSGTEFTLTISSLQSEDFAVYYCQQYHKWPLSFGGGTKVEIK; 0.172

# evaluate next
Input line: For the binder FX-Y17-Y17 (antibody, V domains shown) VH: EVQLLESGGGLVQPGGSLRLSCAGSGFSFGSQTMSWVRQAPGKGLEWVSSISYISGRTYYADSVKGRFTISRDNSKNTLYLQMNSLRAEDTAVYYCTKGHAFDVWGQGTMVTVSS VL: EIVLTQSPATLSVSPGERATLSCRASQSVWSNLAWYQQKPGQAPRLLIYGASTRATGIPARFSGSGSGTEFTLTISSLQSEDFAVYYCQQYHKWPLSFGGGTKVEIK , what EC50 is on record?
Output line: 0.169
